Experiment: Freeze–thaw stability of QC samples (−20 °C, three times)
Format: physicochemical, rat
Settings: plasma QC, spiked 60 ng/mL, freeze (−20 °C) and thaw three times
Protocol: Aliquots of 100 μL plasma samples were mixed with 10 μL I.S. samples (1 μg/mL, in MeOH), then added with 500 μL ACN, respectively, and vortexed for 5 min, centrifugated at 10,000 rpm for 10 min, the supernatants were transferred into clean vials and dried in a vacuum centrifugal concentrator at 1200 rpm, 37 °C. […]
Listed here are compounds together with their documented Freeze–thaw stability Mean.
Enter your answer as a number in %; do not include the unit.

Completed entries (count: 4):
COMPOUND	Freeze–thaw stability Mean, %
C=C1CC[C@@H]2[C@](C)(CO[C@@H]3O[C@H](CO)[C@@H](O)[C@H](O)[C@H]3O)CCC[C@@]2(C)[C@@H]1CCC1=CCOC1=O [Analyte 5, neoandrographolide]	109.12
C=C1CC[C@@H]2[C@](C)(CO)CCC[C@@]2(C)[C@@H]1CCC1=CCOC1=O [Analyte 17, andrograpanin]	82.73
C=C1CC[C@@H]2[C@](C)(CO)[C@H](O)CC[C@@]2(C)[C@@H]1/C=C/C1=CCOC1=O [Analyte 15, 14-deoxy-11,12-didehydro-andrographolide]	114.11
C=C1CC[C@@H]2[C@](C)(CO)[C@H](O)CC[C@@]2(C)[C@@H]1C/C=C1/C(=O)OC[C@H]1O [Analyte 12, andrographolide]	84.52

Next, consider the following compound.
Report Freeze–thaw stability Mean for COc1cc(/C=C/C(=O)O)ccc1O [Analyte 6, trans-ferulic acid] please.
115.63

Where do these numbers come from? They come from paper PMC7382147.
